The entries below come with measured Minus NSB values attached.
Molecular target: kappa opiate receptor (Cavia porcellus)
Construct: guinea pig cortices and cerebella were homogenized in 40 mL of Buffer A; from tissue; host or cells: guinea pig cortices and cerebella, crude membrane suspension
Sequence (P41144 whole entry): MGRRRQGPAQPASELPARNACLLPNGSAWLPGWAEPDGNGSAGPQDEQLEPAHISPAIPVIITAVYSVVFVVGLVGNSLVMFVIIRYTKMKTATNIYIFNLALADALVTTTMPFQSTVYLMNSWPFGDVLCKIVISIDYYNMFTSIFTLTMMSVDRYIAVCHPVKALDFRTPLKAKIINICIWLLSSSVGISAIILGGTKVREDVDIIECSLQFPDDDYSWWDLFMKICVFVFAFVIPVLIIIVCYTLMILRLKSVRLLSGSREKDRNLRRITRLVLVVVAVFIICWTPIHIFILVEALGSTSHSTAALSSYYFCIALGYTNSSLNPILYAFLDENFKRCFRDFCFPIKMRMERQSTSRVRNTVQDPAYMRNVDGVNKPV
Assay: Inhibition of tritiated U69,593 binding to the kappa opiate receptor in guinea pig brain homogenates
Conditions: mean minus non-specific binding; 3 nm tritiated U69,593, guinea pig brain membranes
measured-attribute: Minus NSB

>>> reported_result("CCCC1C(=O)Nc2c(C(C)C)nc(C)n21 (stereo not drawn) [Pool 28]")
700.35
>>> reported_result("Cc1nc(C(C)C)c2n1C(CC(C)C)C(=O)N2 (stereo not drawn) [Pool 20]")
714.80
>>> reported_result("Cc1nc(CC(C)C)c2n1C(C(C)C)C(=O)N2 (stereo not drawn) [Pool 37]")
652.40
>>> reported_result("CCC(C)c1nc(C)n2c1NC(=O)C2C(C)C (stereo not drawn) [Pool 54]")
1040.25
>>> reported_result("CC(C)CCc1nc(C(C)C)c2n1C(C(C)C)C(=O)N2 (stereo not drawn) [Pool 127]")
685.60
>>> reported_result("CCCCC1C(=O)Nc2c(C(C)C)nc(C)n21 (stereo not drawn) [Pool 11]")
829.15
>>> reported_result("CC(C)c1nc(Cc2cccc(C(F)(F)F)c2)n2c1NC(=O)C2C(C)C (racemic) [Pool 73]")
810.20
>>> reported_result("CC(C)c1nc(C(C2CCCCC2)C2CCCCC2)n2c1NC(=O)C2C(C)C (stereo not drawn) [Pool 139]")
608.95
>>> reported_result("COc1ccc(Cc2nc(C(C)C)c3n2C(C(C)C)C(=O)N3)cc1OC (racemic) [Pool 87]")
842.65

----------
Molecular target: kappa opiate receptor (Cavia porcellus)
Construct: guinea pig cortices and cerebella were homogenized in 40 mL of Buffer A; from tissue; host or cells: guinea pig cortices and cerebella, crude membrane suspension
Assay: Inhibition of tritiated U69,593 binding to the kappa opiate receptor in guinea pig brain homogenates
Conditions: [3H]U69,593 bound; 3 nm tritiated U69,593, guinea pig brain membranes
measured-attribute: % Bound (%)

>>> reported_result("CC(C)c1nc(C(C)(C)C)n2c1NC(=O)C2C(C)C (stereo not drawn)")
69.170
>>> reported_result("CC(C)c1nc(CCC2CCCC2)n2c1NC(=O)C2C(C)C (stereo not drawn)")
69.088
>>> reported_result("CC(C)c1nc(Cc2ccc(-c3ccccc3)cc2)n2c1NC(=O)C2C(C)C (racemic)")
69.624

----------
Target: mu opiate receptor (Rattus norvegicus, UniProt P33535)
Construct: from tissue; host or cells: rat brain membranes/homogenate
Sequence (P33535 whole entry): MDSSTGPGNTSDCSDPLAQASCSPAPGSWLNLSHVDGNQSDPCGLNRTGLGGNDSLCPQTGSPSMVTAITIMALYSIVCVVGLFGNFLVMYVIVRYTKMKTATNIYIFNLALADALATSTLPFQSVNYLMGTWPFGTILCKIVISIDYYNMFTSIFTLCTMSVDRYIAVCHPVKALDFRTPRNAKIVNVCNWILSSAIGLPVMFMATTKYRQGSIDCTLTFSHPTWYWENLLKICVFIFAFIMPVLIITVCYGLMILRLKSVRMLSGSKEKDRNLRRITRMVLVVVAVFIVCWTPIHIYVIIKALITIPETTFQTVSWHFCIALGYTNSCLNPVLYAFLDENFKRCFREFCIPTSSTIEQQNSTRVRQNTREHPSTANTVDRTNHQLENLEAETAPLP
Experiment: Inhibition of [3H]DAMGO binding to the mu opiate receptor in rat brain homogenates
Settings: mean minus non-specific binding; 0.08 mg of compound per milliliter, 7 nM 3H-labeled DAMGO, rat brain membranes
measured-attribute: Minus NSB*

>>> reported_result("CC(C)c1nc(Cc2ccc(-c3ccccc3)cc2)n2c1NC(=O)C2C(C)C (racemic) [Pool 84]")
542.40
>>> reported_result("CC(C)c1nc(CCC2CCCC2)n2c1NC(=O)C2C(C)C (stereo not shown) [Pool 146]")
637.85
>>> reported_result("CCCCC1C(=O)Nc2c(C(C)C)nc(C)n21 (stereo not shown) [Pool 11]")
448.05
>>> reported_result("CC(C)c1nc(Cc2cccc(F)c2)n2c1NC(=O)C2C(C)C (racemic) [Pool 71]")
545.70
>>> reported_result("Cc1nc(C(C)C)c2n1C(CC1CCCCC1)C(=O)N2 (stereo not shown) [Pool 29]")
583.65
>>> reported_result("Cc1nc(CCCCN)c2n1C(C(C)C)C(=O)N2 (stereo not shown) [Pool 41]")
550.10
>>> reported_result("CC(C)Cc1nc(C(C)C)c2n1C(C(C)C)C(=O)N2 (stereo not shown) [Pool 125]")
455.70
